experimental details: pharmacokinetic data of tapentadol formulation (blood plasma concentrations)
Assay type: in vivo, patients/test subjects
recorded conditions: human, formulation containing tapentadol, dosage 200 mg, read-out: AUC0-∞ (total area under the curve)
experimental readout: AUC(0-inf) (ng·h/mL)
Enter your answer as a number in ng·h/mL; do not include the unit.

**Q:** I have this compound here, CC[C@@H](c1cccc(O)c1)[C@@H](C)CN(C)C , and I need its recorded AUC(0-inf).
**A:** 825

###

experimental details: pharmacokinetic data of tapentadol formulation (blood plasma concentrations)
Format: in vivo, patients/test subjects
recorded conditions: human, formulation containing tapentadol, dosage 250 mg, read-out: t1/2 (half-life) (converted)
experimental readout: half-life (h)
Enter your answer as a number in h; do not include the unit.

**Q:** I have this compound here, CC[C@@H](c1cccc(O)c1)[C@@H](C)CN(C)C [tapentadol] , and I need its recorded half-life.
**A:** 5.4

###

experimental details: pharmacokinetic data of tapentadol formulation (blood plasma concentrations)
Format: in vivo, patients/test subjects
recorded conditions: human, formulation containing tapentadol, dosage 250 mg, read-out: AUC0-∞ (total area under the curve)
experimental readout: AUC(0-inf) (ng·h/mL)
Enter your answer as a number in ng·h/mL; do not include the unit.

**Q:** I have this molecule here, CC[C@@H](c1cccc(O)c1)[C@@H](C)CN(C)C [tapentadol] , and I need its recorded AUC(0-inf).
**A:** 1100

###

experimental details: pharmacokinetic data of tapentadol formulation (blood plasma concentrations)
Assay type: in vivo, patients/test subjects
recorded conditions: human, formulation containing tapentadol, dosage 200 mg, read-out: t1/2 (half-life) (converted)
From the text: For the purposes of the description, the pharmacokinetic parameters, which may be determined from the blood plasma concentrations of the pharmacologically active compound (A), are defined as follows: […] The above parameters are in each case stated as mean values of the individual values for all investigated patients/test subjects. […]
experimental readout: half-life
Remember to quote the unit after the number.

**Q:** I have this compound here, CC[C@@H](c1cccc(O)c1)[C@@H](C)CN(C)C , and I need its recorded half-life.
**A:** 5.2 h

###

experimental details: pharmacokinetic data of tapentadol formulation (blood plasma concentrations)
Assay type: in vivo, patients/test subjects
recorded conditions: human, formulation containing tapentadol, dosage 250 mg
experimental readout: Cmax (ng/mL)
Enter your answer as a number in ng/mL; do not include the unit.

**Q:** I have this compound here, CC[C@@H](c1cccc(O)c1)[C@@H](C)CN(C)C [tapentadol] , and I need its recorded Cmax.
**A:** 89.3
